Data provenance is ChEMBL document CHEMBL1961873.

- experimental.target: Fibroblast growth factor receptor 4 (Homo sapiens) (UniProt P22455);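 note: values are mean percent inhibition of FGFR4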
- Sequence (P22455 22-802 limits assumed): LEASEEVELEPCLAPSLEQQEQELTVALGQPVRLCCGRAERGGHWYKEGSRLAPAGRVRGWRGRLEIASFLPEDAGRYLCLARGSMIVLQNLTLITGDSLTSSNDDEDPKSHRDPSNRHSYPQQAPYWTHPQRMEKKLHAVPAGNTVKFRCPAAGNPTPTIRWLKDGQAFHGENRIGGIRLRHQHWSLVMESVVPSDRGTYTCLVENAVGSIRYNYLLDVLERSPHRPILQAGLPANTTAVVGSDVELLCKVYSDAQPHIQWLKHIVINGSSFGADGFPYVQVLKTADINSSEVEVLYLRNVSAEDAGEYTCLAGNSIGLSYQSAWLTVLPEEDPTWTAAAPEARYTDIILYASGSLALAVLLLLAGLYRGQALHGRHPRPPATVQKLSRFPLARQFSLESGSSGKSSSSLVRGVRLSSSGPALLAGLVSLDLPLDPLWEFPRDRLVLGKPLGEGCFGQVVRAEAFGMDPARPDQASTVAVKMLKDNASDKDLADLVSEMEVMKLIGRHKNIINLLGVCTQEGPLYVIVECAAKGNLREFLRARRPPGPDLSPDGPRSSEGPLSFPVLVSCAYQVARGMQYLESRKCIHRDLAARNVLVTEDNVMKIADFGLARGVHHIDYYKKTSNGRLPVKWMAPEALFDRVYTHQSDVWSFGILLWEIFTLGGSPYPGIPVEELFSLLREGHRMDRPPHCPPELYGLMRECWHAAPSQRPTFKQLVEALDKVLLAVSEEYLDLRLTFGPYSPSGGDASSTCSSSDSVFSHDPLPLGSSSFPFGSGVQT
- measurement.context: at 0.1 µM
Use 2% as the dividing line for inhibition, with the line itself on the T side and lower values as F.

Known results for compounds:
INSERT INTO results (smiles_record, group_label) VALUES
  ('FC(F)(F)c1cccc(-c2nn3ncccc3c2-c2ccnc(Nc3ccc4c(c3)OCCO4)n2)c1', 'F'),
  ('Cc1cccc(Nc2ncc(-c3ccccc3)o2)c1', 'T'),
  ('COc1ccc2[nH]c3c4[nH]c5ccc(OC)cc5c4c4c(c3c2c1)C(=O)NC4=O', 'T'),
  ('CCc1nn2ncccc2c1-c1ccnc(NC2CC2)n1', 'T');

Now let's try a different one.
[in] API: above_or_equal(metric=inhibition, cutoff=2%) for item CC(=O)Nc1cccc(C#Cc2cncnc2Nc2ccc(OCc3cccc(F)c3)c(Cl)c2)c1
[out] F

---

Consider the following compounds; for each one, report its inhibition.
- experimental.target: Cyclin-dependent kinase 4 (Homo sapiens)
- measurement.context: at 0.1 µM
- Description: GSK_PKIS: CDK4/cyclinD mean inhibition at 0.1 uM [Nanosyn]
Answers are plain numbers, in %.

Worked cases, inhibition given:
INSERT INTO measurements (smiles_record, measured_attribute, recorded_value) VALUES
  ('Fc1cccc(COc2ccc(Nc3ncnc4sc(-c5ccco5)cc34)cc2Cl)c1', 'inhibition', 3.4),
  ('COc1cc2c(cc1Nc1nc(Nc3ccsc3C(N)=O)c3cc[nH]c3n1)N(C(=O)CN(C)C)CCC2(C)C', 'inhibition', 5.42),
  ('CC(C)(CO)CNC(=O)c1ccc2c(c1)/C(=N/Nc1ccc(S(N)(=O)=O)cc1)C(=O)N2', 'inhibition', 13.6);

Give measured inhibition for every item shown.
1. CNC(=O)c1cccc(C#Cc2cncnc2Nc2ccc(OCc3cccc(F)c3)c(Cl)c2)c1
2. COC(=O)c1sc(-n2cnc3cc(OC)c(OC)cc32)cc1OCc1ccccc1C(F)(F)F
3. Fc1ccc(-c2nn3ncccc3c2-c2ccnc(Nc3ccc4c(c3)OCCO4)n2)cc1
4. Fc1ccc(-c2nn3ccccc3c2-c2ccncc2)cc1
5. O=C(Nc1n[nH]c2cc(-c3ccc(F)cc3)ccc12)C1CC1
6. CS(=O)(=O)CCNCc1coc(-c2ccc3ncnc(Nc4ccc(OCc5ccccc5)cc4)c3c2)c1

[out]
1: 2.35; 2: 2.28; 3: 1.89; 4: 1.37; 5: 2.64; 6: 1.27

---

- experimental.target: Proto-oncogene tyrosine-protein kinase Src (Homo sapiens) (UniProt P12931);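 note: each value is an averaged percent inhibition of SRC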
- Sequence (P12931 2-536 limits assumed): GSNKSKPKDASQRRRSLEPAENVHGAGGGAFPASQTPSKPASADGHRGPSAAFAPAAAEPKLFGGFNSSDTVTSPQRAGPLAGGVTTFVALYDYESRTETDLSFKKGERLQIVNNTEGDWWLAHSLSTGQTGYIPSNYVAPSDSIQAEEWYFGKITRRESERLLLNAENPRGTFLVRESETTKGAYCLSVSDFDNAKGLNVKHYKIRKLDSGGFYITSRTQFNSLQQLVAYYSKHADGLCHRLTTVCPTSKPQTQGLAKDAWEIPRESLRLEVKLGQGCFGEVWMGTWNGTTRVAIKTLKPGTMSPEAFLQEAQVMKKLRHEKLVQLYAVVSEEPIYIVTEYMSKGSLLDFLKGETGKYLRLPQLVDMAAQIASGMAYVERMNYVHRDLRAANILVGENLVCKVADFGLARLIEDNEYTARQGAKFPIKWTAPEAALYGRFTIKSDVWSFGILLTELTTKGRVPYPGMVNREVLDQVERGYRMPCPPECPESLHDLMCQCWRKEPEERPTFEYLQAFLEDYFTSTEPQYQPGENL
- measurement.context: at 1 µM
# cutoff 10% applies to inhibition; >= gives criterion met, < gives criterion not met

The examples below pair each entry with its known result.
INSERT INTO assay_data (smiles_record, group_label) VALUES
  ('COc1cccc(-n2ncc3c(N/N=C/c4ccc(F)cc4)ncnc32)c1', 'criterion met'),
  ('Fc1ccc(-c2nn3ccccc3c2-c2ccncc2)cc1', 'criterion not met'),
  ('COc1cc2c(cc1Nc1nc(Nc3ccsc3C(N)=O)c3cc[nH]c3n1)N(C(=O)CN(C)C)CCC2(C)C', 'criterion met'),
  ('CCNC(=O)O[C@H]1CN[C@H](C#Cc2cc3ncnc(Nc4ccc(OCc5cccc(F)c5)c(Cl)c4)c3s2)C1', 'criterion not met');

[in] Could you please find out whether COc1cc(N2CCN(C(C)C)CC2)ccc1Nc1nc(Nc2ccc(F)cc2C(N)=O)c2cc[nH]c2n1 has inhibition that meets 10% or exceeds it?
[out] criterion met
